System: Mus musculus
Test: Neurotoxicity in albino CD-1 mouse assessed as motor impairment at 30 to 300 mg/kg mg/kg, ip measured after 0.5 hrs by rotarod test
Type: toxicity, organism-based
Conditions: in vivo
Measurement label: MTC

1. O=C1NC(=O)C(c2ccccc2)(c2ccccc2)N1 [PHENYTOIN] : 100 mg/kg
2. CC1(c2ccccc2)CC(=O)N(CC(=O)N2CCN(c3ccccc3Cl)CC2)C1=O (stereo unspecified) : Non-toxic
3. CC1(c2ccccc2)CC(=O)N(CC(=O)N2CCN(c3ccc(Cl)cc3)CC2)C1=O (stereo unspecified) : Non-toxic
4. Cc1ccccc1N1CCN(C(=O)CN2C(=O)CC(C)(c3ccccc3)C2=O)CC1 (stereo unspecified) : Non-toxic
5. CCC1(C)CC(=O)NC1=O (stereo unspecified) [ETHOSUXIMIDE] : Non-toxic

Incoming: Please indicate MTC recorded for CCCC(CCC)C(=O)O [VALPROIC ACID]
Outgoing: Non-toxic

Incoming: Read off the recorded MTC for CC1(c2ccccc2)CC(=O)N(CC(=O)N2CCN(c3ccccc3F)CC2)C1=O (stereo unspecified)
Outgoing: 300 mg/kg

Incoming: Item CC1(c2ccccc2)CC(=O)N(CC(=O)N2CCN(Cc3ccccc3)CC2)C1=O (stereo unspecified) : provide MTC
Outgoing: 300 mg/kg

Incoming: Give MTC for CC1(c2ccccc2)CC(=O)N(CC(=O)N2CCN(c3cccc(Cl)c3Cl)CC2)C1=O (stereo unspecified)
Outgoing: Non-toxic

Incoming: Give the reported MTC for this compound. CC1(c2ccccc2)CC(=O)N(CC(=O)N2CCN(c3ccccc3)CC2)C1=O (stereo unspecified)
Outgoing: Non-toxic

Incoming: Hello, please tell me recorded MTC for this one: CC1(c2ccccc2)CC(=O)N(CC(=O)N2CCN(c3cccc(C(F)(F)F)c3)CC2)C1=O (stereo unspecified)
Outgoing: Non-toxic

Incoming: Consider the compound CC1(c2ccccc2)CC(=O)N(CC(=O)N2CCN(c3ncccn3)CC2)C1=O (stereo unspecified) . State its measured MTC.
Outgoing: Non-toxic

Incoming: Indicate its recorded MTC; the compound in question is Cc1cccc(N2CCN(C(=O)CN3C(=O)CC(C)(c4ccccc4)C3=O)CC2)c1 (stereo unspecified)
Outgoing: 300 mg/kg

Incoming: Name the recorded MTC of the compound listed here: COc1cccc(N2CCN(C(=O)CN3C(=O)CC(C)(c4ccccc4)C3=O)CC2)c1 (stereo unspecified)
Outgoing: Non-toxic

Incoming: Find the measured MTC of CC1(c2ccccc2)CC(=O)N(CC(=O)N2CCN(c3ccc(F)cc3)CC2)C1=O (stereo unspecified) and report it.
Outgoing: 300 mg/kg

Incoming: Report measured MTC; entry is CC1(c2ccccc2)CC(=O)N(CC(=O)N2CCN(C3CCCCC3)CC2)C1=O (stereo unspecified)
Outgoing: 300 mg/kg

###

Assay: Protective index, ratio of TD50 for neurotoxicity in ip dosed albino CD-1 mouse to ED50 for anticonvulsant activity in ip dosed subcutaneous pentylenetetrazole-induced seizure albino CD-1 mouse model
Type: toxicity, organism-based
Details: in vivo, read-out: Ratio TD50/ED50
Collected selectivity ratio values appear next to each entry.
Could you respond with only the numeric value?

1. CC1(c2ccccc2)CC(=O)N(CC(=O)N2CCN(c3ccccc3F)CC2)C1=O (stereo not given) : 3.11

Continue with the compound presented below.
Incoming: Output measured selectivity ratio for this item: CC1(c2ccccc2)CC(=O)N(CC(=O)N2CCN(Cc3ccccc3)CC2)C1=O (stereo not given)
Outgoing: 2.12
